Measured values drawn from patent US5684140A for this set.

- experiment: Water solubility of the dyes (excess dye heated at 50 °C in water, cooled to 20 °C, filtered, determined spectroscopically)
- Type: physicochemical
- protocol_conditions: after heating at 50 °C for one hour
So I've got a bunch of compounds here, and I need their solubility values.
Report field: quantity (unit follows the number).

Challenge: # return recorded solubility for entry COc1cc(N=Nc2cc(S(=O)(=O)O)c3cccc(S(=O)(=O)O)c3c2)c(C)cc1Nc1nc(NCCS(=O)(=O)O)nc(SCC(=O)O)n1 [Compound 102]
Response given: 54 g per 100 ml

Challenge: # return recorded solubility for entry CCN(c1nc(Cl)nc(Nc2cc(NC(C)=O)c(N=Nc3cc(S(=O)(=O)O)c4cccc(S(=O)(=O)O)c4c3)cc2OC)n1)c1cc(S(=O)(=O)O)ccc1C [dye 5, reference compound]
Response given: 17 g per 100 ml

Challenge: # return recorded solubility for entry CCN(c1nc(Cl)nc(Nc2ccc(N=Nc3cc4c(S(=O)(=O)O)cc(S(=O)(=O)O)cc4cc3S(=O)(=O)O)c(NC(N)=O)c2)n1)c1cc(S(=O)(=O)O)ccc1C [dye 1, reference compound]
Response given: 11 g per 100 ml

Challenge: # return recorded solubility for entry COc1cc(N=Nc2cc(S(=O)(=O)O)c3cccc(S(=O)(=O)O)c3c2)c(C)cc1Nc1nc(NCCS(=O)(=O)O)nc(SCCO)n1 [Compound 101]
Response given: 40 g per 100 ml

Challenge: # return recorded solubility for entry COc1cc(N=Nc2cc(S(=O)(=O)O)c3cccc(S(=O)(=O)O)c3c2)c(C)cc1Nc1nc(O)nc(NCCS(=O)(=O)O)n1 [Compound 100]
Response given: 31 g per 100 ml
